# assay_comment: NCI Yeast Anticancer Drug Screen. Data for the rad50 strain (AID 155);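 note: 0% = growth of vehicle-only cultures of the same strain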
# conditions: S. cerevisiae rad50 strain growth inhibition; at 50.0 µM; stronger effect = higher value
About 79,000 compounds went through this panel and 15% of them were active in at least one assay; those are over-represented in the sample as a whole.
Entries annotated with measured growth inhibition
endpoint_label: growth inhibition (%)

• O=C(O)c1c(Br)c(Br)c(Br)c(Br)c1C(=O)Nc1ccc(Cl)c(Cl)c1 = -1.05
• O=C1OI(=O)(O)c2ccccc21 (centres undefined) = -4.35
• COc1ccc(S(=O)(=O)N/N=C/c2cc(I)cc([N+](=O)[O-])c2O)cc1 = 15.1
• COc1ccc(NC(=O)Nc2cc(C(F)(F)F)ccc2Cl)cc1 = 14.6
• CCOC(=O)c1cn(CC)c2ccc3ccsc3c2c1=O = -18.2
• CCOc1cc2c(cc1C(C)c1ccc(OCc3ccccc3)c(OC)c1)OCO2 (centres undefined) = 18.8
• C1=C(c2ccccc2)C(OC2Oc3ccccc3C=C2c2ccccc2)Oc2ccccc21 (centres undefined) = 23.1
• NCCCCCC(N)=O = 45
• CCOc1ccc2ccc3ccccc3c2c1NC(C)=O = 10.4
• Cc1c(C(=O)O)c2cc3ccccc3cc2c(=O)n1C = -22.1
• N#Cc1c(-c2ccccc2)cc(-c2ccccc2)n(C2OCC(O)C(O)C2O)c1=S (centres undefined) = 5.1
• CCCCC1(NN=C2CCCCC2)C(=O)N(c2ccccc2)N(c2ccccc2)C1=O = -11.2
• O=C(O)CCc1ccc2c(c1)CC1(Cc3ccccc3C1)C2 = 26.1
• Cc1nc2cc(N)c(Cl)cc2[nH]1 = -6.5
• CCOC(=O)c1cc(CC)[nH]c(=O)c1C#N = -19.1
• COc1cccc2cc(C(C)=O)c(=O)oc12 = 8.65
• NC(=O)C1CC(O)CN1C(=O)c1cccnc1 (centres undefined) = 11.2
• ClC/C(=N\N1CCCCCC1)c1ccccc1 = -7.8
• COc1ccc(C(O)C(NCc2ccccc2)c2ccccc2)cc1 (centres undefined) = 7.75
